Measured values drawn from ChEMBL document CHEMBL1153463 for this set.

test system: Respiratory syncytial virus; experiment: Antiviral activity against RSV assessed as inhibition of viral replication by cell based assay; type: functional, organism-based; settings: human respiratory syncytial virus
EC50 listing for selected compounds.

In the examples that follow, each entry is paired with its recorded EC50.
COCCCn1c(CN2C(=O)/C(=N/OCc3ccccn3)c3ccccc32)nc2ccccc21	238 nM
COC(=O)c1ccc(CO/N=C2/C(=O)N(Cc3nc4ccccc4n3CCNS(C)(=O)=O)c3ccccc32)cc1	51 nM
O=C1/C(=N/OCC(F)(F)F)c2cccnc2N1Cc1nc2ccccc2n1CCCCO	79.8 nM
COCCCn1c(CN2C(=O)/C(=[N+](/[O-])C3CCCCC3)c3ccccc32)nc2ccccc21	285 nM

// query So what's the measured EC50 for this one? CO/N=C1/C(=O)N(Cc2nc3ccccc3n2CCCCO)c2ncccc21
// result 31.2 nM

// query So what's the measured EC50 for this one? CCC(CC)/[N+]([O-])=C1\C(=O)N(Cc2nc3ccccc3n2CCCOC)c2ccccc21
// result 898 nM

// query So what's the measured EC50 for this one? COCCCn1c(CN2C(=O)/C(=N/OC)c3ccccc32)nc2ccccc21
// result 30 nM

// query So what's the measured EC50 for this one? O=C1/C(=N/OCCF)c2cccnc2N1Cc1nc2ccccc2n1CCCCO
// result 43.1 nM

// query So what's the measured EC50 for this one? CCCO/N=C1/C(=O)N(Cc2nc3ccccc3n2CCCOC)c2ccccc21
// result 147 nM

// query So what's the measured EC50 for this one? CO/N=C1/C(=O)N(Cc2nc3ccccc3n2CCCCF)c2cnccc21
// result 106 nM

// query So what's the measured EC50 for this one? N#CCCCn1c(CN2C(=O)/C(=N/OCC(N)=O)c3ccccc32)nc2ccccc21
// result 45 nM

// query So what's the measured EC50 for this one? CO/N=C1/C(=O)N(Cc2nc3ccccc3n2CCCC#N)c2ncccc21
// result 92.8 nM

// query So what's the measured EC50 for this one? COCCCn1c(CN2C(=O)/C(=N/OC3CCOCC3)c3ccccc32)nc2ccccc21
// result 206 nM
